Origin of the recorded values: PubChem BioAssay

Test: inhibitors of mutant huntingtin aggregation, primary screen, imaging, exon1htt(103Q)mCFP cells, high-content imaging (AID 483);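 also: compound exposure lasted 3 days before fixation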
Details: exon1htt(103Q)mCFP cell line, aggregate imaging, at 2 µM; hits give high values
parameter measured: inhibition of aggregation (%)
Report only the number, with the unit % understood.

Ask | Requested field: inhibition of aggregation. Item: "Cc1c(CCC#N)c(N2CCN(C3CCCCC3)CC2)n2c(nc3ccccc32)c1C#N"
Reply | 14.6

Ask | Requested field: inhibition of aggregation. Item: C=CCc1ccccc1OCC(O)CNC(C)C (stereo unspecified)
Reply | -10

Ask | Requested field: inhibition of aggregation. Item: "CN(C)c1nc(OCCOC(=O)Nc2ccc(Cl)cc2Cl)nc(N(C)C)n1"
Reply | -0.2

Ask | Requested field: inhibition of aggregation. Item: COc1ccc2nc(S(=O)Cc3ncc(C)c(OC)c3C)[nH]c2c1 (stereo unspecified)
Reply | 2.2

Ask | Requested field: inhibition of aggregation. Item: "O=C(NCCN1CCCCC1)c1ccc(=O)oc1"
Reply | -8.2

Ask | Requested field: inhibition of aggregation. Item: CC(C)OC(=O)C(CC(=O)O)NCc1ccccc1 (stereo unspecified)
Reply | 15
